experiment: Multiple-dose plasma PK of IV Compound A in patients with NT2; format: in vivo, human; settings: human, plasma, intravenous, 112 mg, Cmpd A 112 mg; 2 Hours Postdose at Day 1
propertyMeasured: concentration at 2 h (ng/mL)
Report as a plain number; the unit ng/mL is understood.

Input line: So what does the record say about concentration at 2 h for COC(=O)N1CCC[C@H](NS(C)(=O)=O)[C@@H]1CO[C@H]1CC[C@@H](c2ccccc2)CC1 [Compound A] ?
Output line: 142

---

assay: Plasma PK of Compound A after a single 9-hour IV infusion in sleep-deprived healthy male subjects; type: in vivo, human; conditions: male, human, plasma, iv, 112 mg, 112 mg 9-h IV infusion; 9 h post infusion end; read-out: Plasma concentration (Median)
propertyMeasured: concentration at 9 h (ng/mL)
Report only the number, with the unit ng/mL understood.

Input line: Requested field: concentration at 9 h. Item: COC(=O)N1CCC[C@H](NS(C)(=O)=O)[C@@H]1CO[C@H]1CC[C@@H](c2ccccc2)CC1 [Compound A]
Output line: 11.9

---

assay: Multiple-dose plasma PK of IV Compound A in patients with NT2; assay type: in vivo, human; conditions: human, plasma, intravenous, 44 mg, Cmpd A 44 mg; 2 Hours Postdose at Day 1
propertyMeasured: concentration at 2 h (ng/mL)
API: value field is a number in ng/mL; no unit string.

Input line: Consider the compound shown here: COC(=O)N1CCC[C@H](NS(C)(=O)=O)[C@@H]1CO[C@H]1CC[C@@H](c2ccccc2)CC1 [Compound A] What is its recorded concentration at 2 h?
Output line: 59

---

test: Single-dose plasma PK of Compound A in subjects with OSA; type: in vivo, human; settings: human, intravenous; 44 mg single dose, subjects with OSA, plasma, mean (PK set); read-out: Ceoi
propertyMeasured: concentration at 9 h (ng/mL)
Numeric answer only, unit ng/mL assumed.

Input line: Give its concentration at 9 h value. Item: COC(=O)N1CCC[C@H](NS(C)(=O)=O)[C@@H]1CO[C@H]1CC[C@@H](c2ccccc2)CC1 [Compound A]
Output line: 90.4

---

test: Plasma PK of Compound A after a single 9-hour IV infusion in sleep-deprived healthy male subjects; type: in vivo, human; conditions: male, human, plasma, iv, 44 mg, 44 mg 9-h IV infusion; 2 h post infusion start; read-out: Plasma concentration (GM)
propertyMeasured: concentration at 2 h (µg/mL)
# number only, unit µg/mL dropped from output

Input line: Quick one: concentration at 2 h for COC(=O)N1CCC[C@H](NS(C)(=O)=O)[C@@H]1CO[C@H]1CC[C@@H](c2ccccc2)CC1 ?
Output line: 0.0729

---

assay: Multiple-dose plasma PK of IV Compound A in patients with NT2; type: in vivo, human; details: human, plasma, intravenous, 44 mg, Cmpd A 44 mg; Day 1; read-out: Ceoi Mean
propertyMeasured: concentration at 9 h
Note: state the figure and append the unit.

Input line: Requested field: concentration at 9 h. Item: COC(=O)N1CCC[C@H](NS(C)(=O)=O)[C@@H]1CO[C@H]1CC[C@@H](c2ccccc2)CC1
Output line: 69 ng/mL

---

Assay: Plasma PK of Compound A after a single 9-hour IV infusion in sleep-deprived healthy male subjects
Format: in vivo, human
Conditions: male, human, plasma, iv, 44 mg, 44 mg 9-h IV infusion; 6 h post infusion start; read-out: Plasma concentration (Median)
Experimental: This was a phase 1b, single-center, randomized, double-blind, double-dummy, placebo- and active-controlled, 4-period Williams design crossover study to evaluate the PK, PD, and safety of Compound A in sleep-deprived healthy volunteers. Compound A was administered as a 9-hour IV infusion. […] During the day before dosing on Day 1, participants were administered the KSS at scheduled timepoints. […] Subject's vital signs, including BP, were monitored during the dosing and testing period. […]
propertyMeasured: concentration at 6 h (ng/mL)
Express your answer in ng/mL, writing the number without its unit.

Input line: Can you look up the measured concentration at 6 h of COC(=O)N1CCC[C@H](NS(C)(=O)=O)[C@@H]1CO[C@H]1CC[C@@H](c2ccccc2)CC1 for me?
Output line: 97.4

---

assay: Multiple-dose plasma PK of IV Compound A in patients with NT2; format: in vivo, human; conditions: human, plasma, intravenous, 44 mg, Cmpd A 44 mg; 9 Hours Postdose at Day 1; read-out: Plasma Concentration Mean
propertyMeasured: concentration at 9 h (ng/mL)
Just the number in ng/mL, nothing appended.

Input line: Field request: concentration at 9 h | item: COC(=O)N1CCC[C@H](NS(C)(=O)=O)[C@@H]1CO[C@H]1CC[C@@H](c2ccccc2)CC1
Output line: 69

---

assay: Plasma PK of Compound A after a single 9-hour IV infusion in sleep-deprived healthy male subjects; type: in vivo, human; conditions: male, human, plasma, iv, 44 mg, 44 mg [LD] single 9-hour IV infusion; read-out: AUC∞ (Median)
propertyMeasured: AUC(0-inf) (ng·h/mL)
Quick note: give the figure in ng·h/mL, leave out the unit.

Input line: # lookup: AUC(0-inf) of COC(=O)N1CCC[C@H](NS(C)(=O)=O)[C@@H]1CO[C@H]1CC[C@@H](c2ccccc2)CC1
Output line: 911

---

assay: Multiple-dose plasma PK of IV Compound A in patients with NT2; format: in vivo, human; conditions: human, plasma, intravenous, 112 mg, Cmpd A 112 mg; Day 1; read-out: Ceoi Mean
propertyMeasured: concentration at 9 h (ng/mL)
Return type: number; implicit unit ng/mL.

Input line: Find the recorded concentration at 9 h belonging to COC(=O)N1CCC[C@H](NS(C)(=O)=O)[C@@H]1CO[C@H]1CC[C@@H](c2ccccc2)CC1 and report it.
Output line: 158

---

test: Plasma PK of Compound A after a single 9-hour IV infusion in sleep-deprived healthy male subjects; assay type: in vivo, human; conditions: male, human, plasma, iv, 112 mg, 112 mg [HD] single 9-hour IV infusion; read-out: tmax (Mean)
propertyMeasured: Tmax
Reply with the number and its unit after it.

Input line: Tell me the measured Tmax of COC(=O)N1CCC[C@H](NS(C)(=O)=O)[C@@H]1CO[C@H]1CC[C@@H](c2ccccc2)CC1 [Compound A] , please.
Output line: 7.88 h

---

assay: Plasma PK of Compound A after a single 9-hour IV infusion in sleep-deprived healthy male subjects; format: in vivo, human; conditions: male, human, plasma, iv, 44 mg, 44 mg 9-h IV infusion; 4 h post infusion start; read-out: Plasma concentration (GM)
propertyMeasured: concentration at 4 h (ng/mL)
API: value field is a number in ng/mL; no unit string.

Input line: Which measured concentration at 4 h value corresponds to COC(=O)N1CCC[C@H](NS(C)(=O)=O)[C@@H]1CO[C@H]1CC[C@@H](c2ccccc2)CC1 ?
Output line: 88.3

---

test: Multiple-dose plasma PK of IV Compound A in patients with NT2; format: in vivo, human; settings: human, plasma, intravenous, 44 mg, Cmpd A 44 mg; Day 1; read-out: Ceoi Geo mean
propertyMeasured: concentration at 9 h
Answer shape: numeric part, then the unit.

Input line: Need concentration at 9 h, item COC(=O)N1CCC[C@H](NS(C)(=O)=O)[C@@H]1CO[C@H]1CC[C@@H](c2ccccc2)CC1
Output line: 68.7 ng/mL

---

assay: Plasma PK of Compound A after a single 9-hour IV infusion in sleep-deprived healthy male subjects; assay type: in vivo, human; details: male, human, plasma, iv, 44 mg, 44 mg 9-h IV infusion; 6 h post infusion start; read-out: Plasma concentration (GM)
propertyMeasured: concentration at 6 h (ng/mL)
Provide the reading as a plain figure in ng/mL.

Input line: Could you share which concentration at 6 h value was measured for COC(=O)N1CCC[C@H](NS(C)(=O)=O)[C@@H]1CO[C@H]1CC[C@@H](c2ccccc2)CC1 ?
Output line: 97.8

---

experiment: Plasma PK of Compound A after a single 9-hour IV infusion in sleep-deprived healthy male subjects; format: in vivo, human; settings: male, human, plasma, iv, 112 mg, 112 mg 9-h IV infusion; 0.5 h post infusion end; read-out: Plasma concentration (GM)
propertyMeasured: concentration at 0.5 h
Numeric answer plus unit only.

Input line: What value of concentration at 0.5 h has been reported for the following compound? COC(=O)N1CCC[C@H](NS(C)(=O)=O)[C@@H]1CO[C@H]1CC[C@@H](c2ccccc2)CC1
Output line: 0.122 µg/mL

---

Test: Multiple-dose plasma PK of IV Compound A in patients with NT2
Format: in vivo, human
Conditions: human, plasma, intravenous, 44 mg, Cmpd A 44 mg; Day 1; read-out: AUClast Mean
Procedure: The purpose of the study was to evaluate the safety, tolerability, pharmacokinetics and pharmacodynamics of Compound A after multiple days of IV administration in patients with NT2. NT2 patients were evaluated in Cohort C1 and C2 (Table 30). Compound A or placebo were administered via IV infusion over 9 hours once daily for 7 days. […] In this part, potential efficacy of Compound A was evaluated with MWT, ESS, KSS, night-time PSG (NPSG), and PGI-C as an exploratory PD assessment. […]
propertyMeasured: AUC(0-t) (ng·h/mL)
Unit ng·h/mL implied. Number only.

Input line: Which AUC(0-t) is reported for this compound? COC(=O)N1CCC[C@H](NS(C)(=O)=O)[C@@H]1CO[C@H]1CC[C@@H](c2ccccc2)CC1
Output line: 652
